assay-target: human CYP2C9 (Homo sapiens)
Sequence (P11712 whole entry): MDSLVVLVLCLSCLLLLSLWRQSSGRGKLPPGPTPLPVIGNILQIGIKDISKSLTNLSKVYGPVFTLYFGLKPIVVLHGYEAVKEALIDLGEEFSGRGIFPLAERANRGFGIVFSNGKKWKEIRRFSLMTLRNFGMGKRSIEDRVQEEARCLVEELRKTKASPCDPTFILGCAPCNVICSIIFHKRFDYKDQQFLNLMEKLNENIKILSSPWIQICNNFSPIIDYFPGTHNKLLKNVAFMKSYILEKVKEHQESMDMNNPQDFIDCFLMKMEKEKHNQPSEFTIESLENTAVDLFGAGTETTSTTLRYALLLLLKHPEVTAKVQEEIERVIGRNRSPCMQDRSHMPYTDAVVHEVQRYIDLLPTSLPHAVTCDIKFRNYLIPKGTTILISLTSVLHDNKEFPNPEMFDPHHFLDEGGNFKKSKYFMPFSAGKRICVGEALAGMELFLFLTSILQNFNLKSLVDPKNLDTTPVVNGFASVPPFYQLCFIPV
assay-protocol: biochemical
condition: CYP2C9 IC50 (half-maximal inhibitory concentration)
Structures can show the parent of a compound that is named as a salt.
readout-type: pIC50
Recall that pIC50 is obtained by taking minus log10 of the concentration measured in molar.

O=S(=O)(Oc1ccc(Cl)cc1)c1ccc(Cl)cc1 [Chlorfenson] | 4.73
OC(c1ccc(Cl)cc1)(c1ccc(Cl)cc1)C(Cl)(Cl)Cl [Dicofol] | 5.31
CCCc1c(OCCCCc2nnn[nH]2)ccc(C(C)=O)c1O [Tomelukast] | 6.82
CCOC(=O)C1=C(C)NC(C)=C(C(=O)OCC)C1c1ccccc1/C=C/C(=O)OC(C)(C)C [Lacidipine] | 5.89
ClC(c1ccccc1)(c1ccccc1)c1ccccc1 [Trityl chloride] | 5.83

Query string: State the recorded pIC50 for this entry: CCCN(CCOc1c(Cl)cc(Cl)cc1Cl)C(=O)n1ccnc1 [Prochloraz]
Result string: 6.09

Query string: Also Brc1cc2ccccc2c2ccccc12 [9-Bromophenanthrene] ?
Result string: 4.25

Query string: // same read-out, input: O=[N+]([O-])c1c2ccccc2cc2ccccc12 [9-Nitroanthracene]
Result string: 4.87

Query string: Item: Cc1[nH]cnc1CN1CCc2c(c3ccccc3n2C)C1=O [Alosetron hydrochloride]
Result string: 5.78

Query string: Follow-up entry: CCCCC(C#N)(Cn1cncn1)c1ccc(Cl)cc1 (stereo not drawn) [Myclobutanil]
Result string: 4.60

Query string: Queued: CCN(CC)c1c([N+](=O)[O-])cc(C(F)(F)F)c(N)c1[N+](=O)[O-] [Dinitramine]
Result string: 4.13

Query string: // same read-out, input: CC(C)(C)C(O)C(Oc1ccc(-c2ccccc2)cc1)n1cncn1 (stereo not drawn) [Bitertanol]
Result string: 5.12

Query string: CC(C)(C)C(O)C(Oc1ccc(Cl)cc1)n1cncn1 (stereo not drawn) [Triadimenol] , same question.
Result string: 4.46

Query string: Please give the result for Nc1ccc2c(c1)CN1C(=O)c3ccccc3C1=N2 [Daniquidone] too.
Result string: 5.30

###

assay-target: human CYP2D6 (Homo sapiens)
Sequence (P10635 whole entry): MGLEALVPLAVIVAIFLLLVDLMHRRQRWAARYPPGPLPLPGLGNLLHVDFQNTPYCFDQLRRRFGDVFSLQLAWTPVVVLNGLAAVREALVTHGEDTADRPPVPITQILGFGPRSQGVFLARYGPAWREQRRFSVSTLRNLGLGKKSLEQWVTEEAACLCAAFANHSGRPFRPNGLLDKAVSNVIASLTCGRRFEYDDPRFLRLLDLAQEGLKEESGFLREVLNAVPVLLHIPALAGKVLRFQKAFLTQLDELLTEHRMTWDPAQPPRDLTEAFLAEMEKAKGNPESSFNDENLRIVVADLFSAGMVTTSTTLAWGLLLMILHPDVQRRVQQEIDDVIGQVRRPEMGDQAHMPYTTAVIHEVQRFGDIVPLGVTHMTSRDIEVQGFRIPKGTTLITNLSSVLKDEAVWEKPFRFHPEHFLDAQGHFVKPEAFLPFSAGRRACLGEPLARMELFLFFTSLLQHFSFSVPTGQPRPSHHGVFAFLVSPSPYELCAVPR
assay-protocol: biochemical
pIC50: −log10 of the molar value. Where a name gives a salt, the structure may show the parent alone.
Param threshold (5) applies to pIC50; output condition met when value >= threshold, condition not met when value < threshold.

// below: answered compounds
CN1CCN(CCCN2c3ccccc3Sc3ccc(S(=O)(=O)N(C)C)cc32)CC1 [Thioproperazine dimethanesulfonate] | condition not met
CCOC(=O)c1c(N)sc2c1CCN(Cc1ccccc1)C2 | condition met
CN1[C@@H]2CC[C@H]1C[C@@H](NC(=O)n1c(=O)[nH]c3ccccc31)C2 | condition met
C=C(C)[C@H]1Cc2c(ccc3c2O[C@@H]2COc4cc(OC)c(OC)cc4[C@@H]2C3=O)O1 | condition not met
CCOP(=S)(OCC)O/N=C(\C#N)c1ccccc1 | condition not met
CCN(CC)c1nc(C)cc(OP(=S)(OC)OC)n1 | condition not met
CN1CCC(N(Cc2ccccc2)c2ccccc2)CC1 | condition met
CCOC(=O)C(SP(=S)(OC)OC)c1ccccc1 (stereo not shown) [Phenthoate] | condition not met

Query string: Tell me whether pIC50 is at least 5 here: CCc1ccc(C2CCNCC2)cc1
Result string: condition met

Query string: // same read-out, input: CC(CCc1ccccc1)NCC(O)c1ccc(O)c(C(N)=O)c1 (stereo not shown) [labetalol, reference compound]
Result string: condition met

Query string: Again, but for CCCCCCCCCCCCCCCC[N+](C)(C)CC [Ethylhexadecyldimethylammonium bromide]
Result string: condition met

Query string: What about Cc1nc2n(c(=O)c1CCN1CCC(C(=O)c3ccc(F)cc3)CC1)CCS2 ?
Result string: condition met

Query string: Record: CCN(CC)CCOc1ccccc1C(=O)CCc1ccccc1
Result string: condition met

Query string: Next record, please: C[C@H]1CCCC(=O)CCC/C=C/c2cc(O)cc(O)c2C(=O)O1
Result string: condition not met

Query string: Now give it for C/C(=C(/OCCOc1ccc(Cl)cc1)c1ccc(Cl)cc1Cl)n1ccnc1 too.
Result string: condition met

Query string: Follow-up item: O=C(OCC(O)CO)c1ccccc1Nc1ccnc2c(C(F)(F)F)cccc12 (stereo not shown)
Result string: condition not met

Query string: Next compound up: CCCCc1cc2ccccc2c(OCCN(C)C)n1 [Dimethisoquin hydrochloride]
Result string: condition met

Query string: Quick one: CCOP(=S)(OCC)SC(CCl)N1C(=O)c2ccccc2C1=O (stereo not shown)
Result string: condition not met

Query string: Try this compound next: CC(C(O)c1ccccc1)N(C)CCOC(c1ccccc1)c1ccccc1 (stereo not shown)
Result string: condition met

Query string: Also Cc1cc2c(OCC(CNC(C)(C)C)OC(=O)c3ccccc3)cccc2[nH]1 (stereo not shown) , if possible.
Result string: condition met

Query string: And for COC(=O)C1=C(C)NC(C)=C(C(=O)OCCN2CCN(C(c3ccccc3)c3ccccc3)CC2)C1c1cccc([N+](=O)[O-])c1 (stereo not shown) ?
Result string: condition met

Query string: Also check CCOP(=S)(Oc1cnc(C(C)(C)C)nc1)OC(C)C (stereo not shown)
Result string: condition not met

###

human CYP2C19 (Homo sapiens, UniProt P33261) CYP2C19 AC50 (half-maximal activity concentration) data
Sequence (P33261 whole entry): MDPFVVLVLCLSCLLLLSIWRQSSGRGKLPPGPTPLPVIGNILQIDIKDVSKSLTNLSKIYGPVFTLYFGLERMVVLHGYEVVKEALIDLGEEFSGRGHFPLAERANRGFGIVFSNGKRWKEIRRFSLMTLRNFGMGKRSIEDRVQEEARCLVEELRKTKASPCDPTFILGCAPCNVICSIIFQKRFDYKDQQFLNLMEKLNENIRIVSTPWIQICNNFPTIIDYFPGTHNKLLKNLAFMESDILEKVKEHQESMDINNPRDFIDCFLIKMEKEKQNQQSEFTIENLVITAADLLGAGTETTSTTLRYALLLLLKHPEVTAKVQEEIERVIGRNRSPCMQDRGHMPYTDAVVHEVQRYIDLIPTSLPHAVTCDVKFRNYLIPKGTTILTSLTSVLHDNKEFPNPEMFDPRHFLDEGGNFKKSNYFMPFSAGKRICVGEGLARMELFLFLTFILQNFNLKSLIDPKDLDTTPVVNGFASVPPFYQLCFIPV
Counter-ions that a name gives are not always drawn.

Oc1cc(Cl)c(Cl)cc1Cl | Inconclusive inhibitor
O=C1NC2CCCCN2C12CCN(CCCN1c3ccccc3CCc3ccc(Cl)cc31)CC2 (stereo not shown) | Inconclusive inhibitor
CCCCCCCCCCOS(=O)(=O)O [Sodium decyl sulfate] | Inactive
Clc1ccccc1-c1ccccc1Cl | Inconclusive activator
CC(=O)c1cc2ccccc2s1 [2-Acetylbenzo[b]thiophene] | Inactive
COc1cc(Nc2c(C#N)cnc3cc(OCCCN4CCN(C)CC4)c(OC)cc23)c(Cl)cc1Cl | Inactive
CCC(=O)O[C@@H]1C=C2CC[C@@H]3[C@H](CC[C@]4(C)[C@@H](OC(=O)CC)CC[C@@H]34)C2CC1 (stereo partly shown) [Bolandiol dipropionate] | Inactive
O=C(CCCN1CCC(O)(c2ccc(Br)cc2)CC1)c1ccc(F)cc1 | Inactive
CCCCC(CC)C(=O)[O-].CCCCC(CC)C(=O)[O-].[Ba+2] (stereo not shown) [Barium bis(2-ethylhexanoate)] | Inactive
CC(=O)c1ccc(O)cc1 [4-Hydroxyacetophenone] | Inactive

Query string: Report CYP2C19 AC50 (half-maximal activity concentration) for O=C(O)c1cc(I)cc(I)c1I tested on human CYP2C19 (Homo sapiens, UniProt P33261).
Result string: Inconclusive inhibitor

Query string: Next: Cl.Nc1c2ccccc2nc2ccccc12.O
Result string: Inconclusive activator

Query string: Repeat with CCCCCCC(O)CCCCCCCCCCC(=O)OC (stereo not shown) [Methyl 12-hydroxyoctadecanoate]
Result string: Inactive

Query string: Now consider CN1CC[C@]23c4c5ccc(O)c4O[C@H]2[C@@H](O)C=C[C@H]3[C@H]1C5 [Morphine sulfate pentahydrate] .
Result string: Inactive

Query string: Okay, and C[As+](C)(C)CC(=O)[O-] ?
Result string: Inactive

Query string: Moving on to the next molecule: COC(=O)c1ccccc1C(=O)c1ccc(OCCN2CCCCC2)cc1.Cl [Pitofenone hydrochloride]
Result string: Inactive

Query string: Queued: CC[N+](C)(CC)CCOC(=O)C1c2ccccc2Oc2ccccc21 [Methantheline bromide]
Result string: Inactive

Query string: Also CC(C)(C)c1ccc(C(=O)CCCCl)cc1 ?
Result string: Inactive

Query string: Also CC(C)c1ccc2ncccc2c1 ?
Result string: Inactive

###

assay-target: Photinus pyralis (firefly) luciferase (Photinus pyralis)
Sequence (P08659 whole entry): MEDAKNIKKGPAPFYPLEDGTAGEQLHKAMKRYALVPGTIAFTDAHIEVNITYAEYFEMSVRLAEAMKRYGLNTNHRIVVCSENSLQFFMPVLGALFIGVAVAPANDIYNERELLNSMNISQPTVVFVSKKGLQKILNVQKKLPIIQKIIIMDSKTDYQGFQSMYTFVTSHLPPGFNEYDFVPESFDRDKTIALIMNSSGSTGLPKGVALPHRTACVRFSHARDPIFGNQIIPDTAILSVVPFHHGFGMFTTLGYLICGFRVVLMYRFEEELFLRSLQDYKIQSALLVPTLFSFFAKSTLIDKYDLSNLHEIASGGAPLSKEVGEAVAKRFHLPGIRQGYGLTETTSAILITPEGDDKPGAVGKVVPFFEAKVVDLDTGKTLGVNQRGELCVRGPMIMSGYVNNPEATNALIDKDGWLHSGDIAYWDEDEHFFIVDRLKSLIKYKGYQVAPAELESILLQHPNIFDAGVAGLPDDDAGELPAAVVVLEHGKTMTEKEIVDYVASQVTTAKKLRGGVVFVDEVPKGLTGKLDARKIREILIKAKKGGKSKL
assay-protocol: biochemical
Assay type: biochemical
readout-type: IC50
Respond with the figure and its unit, in that order.

c1ccc2c(c1)cc1ccc3cccc4ccc2c1c34 | 16.4 µM
O=[N+]([O-])c1cc(C(F)(F)F)c(Cl)c([N+](=O)[O-])c1Nc1ncc(C(F)(F)F)cc1Cl | 89.4 µM
Brc1c2ccccc2cc2ccccc12 | 42.3 µM
Cc1ccc2cc3c(ccc4ccccc43)c3c2c1CC3 | 6.94 µM
CC(CC1c2ccccc2CCc2ccccc21)CN(C)C (stereo not drawn) | 8.71 µM

Query string: What IC50 value was documented for this compound, c1ccc2cc3c(ccc4ccccc43)cc2c1 ?
Result string: 6.12 µM

Query string: What about this compound? CCOP(=S)(OCC)SCn1c(=O)oc2cc(Cl)ccc21
Result string: 49.6 µM

Query string: Entry Nc1ccc2c(c1)CN1C(=O)c3ccccc3C1=N2 please
Result string: 0.36 µM

Query string: Query Cc1ccc2c(c1N)C(=O)c1ccccc1C2=O next
Result string: 5.87 µM

###

assay-target: UniProtKB P33261
assay-protocol: biochemical
condition: CYP2C19 IC50 (half-maximal inhibitory concentration)
pIC50: −log10 of the molar value.
Give MET when the value for pIC50 is at least 6. Give NOT MET when it is less.

Worked examples follow.
ClC(Cl)=C(c1ccc(Cl)cc1)c1ccc(Cl)cc1 | MET
OC(CCCN1CCCCC1)(c1ccccc1)c1ccccc1 | NOT MET

Query string: In plain terms: is recorded pIC50 at least 6 for CCOP(=S)(OCC)SCCS(=O)(=O)CC ?
Result string: MET

Query string: Consider next the compound OC(c1ccc(F)cc1)(c1cncnc1)c1ccccc1Cl (centres unmarked) in the same way.
Result string: NOT MET

Query string: Try the compound CC(=O)SCC(Cc1ccccc1)C(=O)NCC(=O)OCc1ccccc1 (centres unmarked)
Result string: MET
